Tested on: UACC-62 melanoma
Test: NCI-60 one-dose screen, 48 h (100 = growth as untreated, 0 = no growth, -100 = all killed)
Settings: 10 µM unless noted
This is part of a sample that, as a whole, favours compounds with a hit. Of some 83,000 tested, about 20% had one in any assay.
Please map values of growth to classes as shown: low interval = under 40%, middle interval = from 40% up to 90%, high interval = 90% and over

Just checking, what class would you give O=C(Nc1ccc(-n2ccc3c(NC(=O)c4ccccc4)ncnc32)cc1)c1cccc(C(F)(F)F)c1 here? low interval

Just checking, what class would you give NC(=NCCCOc1ccc(F)cc1)Nc1ccc(Cl)c(Cl)c1 here? middle interval

Just checking, what class would you give CC[C@H]1[C@@H]2C=C[C@@H]3[C@H]4C/C=C\C(=O)NCCC[C@@H]5NC(=O)/C(=C(O)/C=C/[C@@H]4C[C@@H]3[C@H]2C[C@H]1C)C5=O here? middle interval

Just checking, what class would you give O=C1C(SCCO)=C(SCCO)C(=O)N1c1ccc(-c2ccccc2)cc1 here? middle interval

Just checking, what class would you give O=C1c2ccccc2C(=O)c2c(NCCN=Cc3c(O)ccc4ccccc34)cccc21 here? middle interval

Just checking, what class would you give COc1ccc(-c2nn(-c3ccc(NC(=O)c4ccc(Cl)c(C(F)(F)F)c4)cc3)cc2-c2ccncc2)cc1Cl here? low interval

Just checking, what class would you give Cc1nssc1=S here? high interval

Just checking, what class would you give O=C(Nc1ccc(F)cc1)Nc1ccc(Br)c(C(F)(F)F)c1 here? low interval

Just checking, what class would you give CC(=O)Oc1ccc(C(OC(C)=O)OC(C)=O)cc1 here? high interval

Just checking, what class would you give CC(=O)CC/C=C(\C)[C@H](O)[C@H](C)C(=O)O[C@H]1C[C@H](C)C=C2C=C[C@@]3(C)O[C@@H](O)CC(=O)[C@]3(C)[C@H]21 here? low interval

Just checking, what class would you give Cc1c(C(C)(C)C)cc(C(C)(C)C)c2c1CN(C)CO2 here? high interval

Just checking, what class would you give Cc1cc2nc(-c3c(N)ncc(C#N)c3-c3ccc(Cl)cc3)[nH]c2cc1C here? middle interval

Just checking, what class would you give c1cncc(-c2nc3ccccc3[nH]2)c1 here? middle interval

Just checking, what class would you give O=c1c(-c2ccc3c(c2)OCO3)coc2c(CO)c(O)ccc12 here? low interval

Just checking, what class would you give O=C(O)c1ccc(-c2nn(-c3ccc(C(=O)O)cc3)cc2/C=N/Nc2c(F)c(F)cc(F)c2F)cc1 here? high interval

Just checking, what class would you give Nc1ncnc2c1c(-c1ccc(Oc3ccccc3)cc1)nn2C[C@H]1SSC[C@@H]1O here? low interval

----------
System: MCF7 breast
Experiment: NCI-60 one-dose screen, 48 h (100 = growth as untreated, 0 = no growth, -100 = all killed)
Conditions: 10 µM unless noted
Description: Growth inhibition of the MCF7 human tumor cell line is measured as a screen for anti-cancer activity. Cells are grown in 96 well plates and exposed to the test compound for 48 hours. Compounds are tested at a single concentration, which is 10^-5 M for most compounds. The reported endpoint is percent growth (GI% or GIPRCNT), where numbers from 0 - 100% represent growth inhibition, and numbers from -100% - 0 represent cell death. For example, a value of 40 represents 60% growth inhibition. […]
About 83,000 compounds went through this panel and 20% of them were active in at least one assay; those are over-represented in the sample as a whole.
Answer each item with its documented growth.
Field format: number, assumed %, no unit text.

# query: growth | item CCc1c(C)c2cc3nc(NCc4ccccc4)oc3c(C)c2oc1=O | system: MCF7 breast 73.1

# query: growth | item O=C(Cn1c2ccccc2c2ccncc21)N/N=C/c1c[nH]c2ccccc12 | system: MCF7 breast 37.8

# query: growth | item Nc1nc(-c2cc3c(cc2Cl)NC(=O)/C3=C/c2ccccc2)cs1 | system: MCF7 breast 7.09

# query: growth | item S=c1n(CNc2ccc(Cl)nn2)nc(-c2cc(Cl)cc(Cl)c2Cl)n1/N=C/c1ccc(Cl)cc1 | system: MCF7 breast 87.4

# query: growth | item O=[N+]([O-])c1cccc(C2c3ccccc3Oc3ccccc32)c1 | system: MCF7 breast 98.7

# query: growth | item Cc1cccc(CC(=O)c2ccccc2)n1 | system: MCF7 breast 92

----------
System: SR leukemia
Assay: NCI-60 one-dose screen, 48 h
Details: 10 µM unless noted
Compounds without any hit were thinned out: in the full panel of roughly 83,000, 20% have a hit. Active and inactive are the calls of the source. How the source made its calls: active means growth percent below 10; inactive means the rest.
Please reply with one of these outcomes: active, inactive

Test call for this compound, please: O=c1c(-c2ccc3c(c2)OCO3)coc2c(CO)c(O)ccc12 inactive

Test call for this compound, please: Cc1nc(-c2ccc(Cl)cc2)ccc1NC(=O)Nc1cccc(C(F)(F)F)c1 inactive

Test call for this compound, please: ClC1c2ccccc2CCc2ccccc21 inactive

Test call for this compound, please: CCC1S/C(=N\N=C(/C)c2cccs2)N(c2ccccc2)C1=O (stereo not given) inactive

Test call for this compound, please: COC(OC)C1(c2ccccc2)NC(=O)NC1=O (stereo not given) inactive

Test call for this compound, please: O=C(Nc1ccc(-n2ccc3c(NC(=O)c4ccccc4)ncnc32)cc1)Nc1ccc(Cl)c(C(F)(F)F)c1 active

Test call for this compound, please: C[C@]12CC[C@@H]3c4ccc(O)c(N)c4CC[C@H]3[C@@H]1CC[C@@H]2O inactive

Test call for this compound, please: Nn1c(CN2CCN(c3cc4c(cc3F)c(=O)c(C(=O)O)cn4C3CC3)CC2)n[nH]c1=S inactive

Test call for this compound, please: C/C(=N/NC(=O)Cn1c2ccccc2c2ccncc21)c1cccs1 inactive

Test call for this compound, please: COC(=O)c1oc2c(C(C)=O)c(OCCCN(C)C)ccc2c1C inactive

Test call for this compound, please: Nc1ncnc2c1c(-c1ccc(Oc3ccccc3)cc1)nn2C[C@H]1SSC[C@H]1O active

Test call for this compound, please: COc1ccc(CNc2nc3ccccc3c3c(=O)c4ccccc4sc23)cc1OC inactive

Test call for this compound, please: CC(=O)n1cc(/C=C2\N=C(c3ccc(Cl)cc3)N(c3ccc(S(=O)(=O)Nc4nccs4)cc3)C2=O)c2ccccc21 inactive

Test call for this compound, please: Cc1ccc2oc(=O)cc(C3C(C#N)=C(N)Oc4c3ccc3ccccc43)c2c1 (stereo not given) inactive

Test call for this compound, please: COc1cc2c(cc1OCCCCC(=O)Nc1ccc(-c3nc4ccccc4s3)cc1)N=C[C@@H]1CCCN1C2=O active

Test call for this compound, please: COc1ccc(-c2nnc(SCC(=O)Nc3ccc(C(=O)/C=C/c4ccc(Cl)cc4)cc3)o2)cc1OC inactive

Test call for this compound, please: COc1ccc2c(c1)OC(N(C(C)=O)C(C)=O)=C(C#N)C2c1ccc(F)cc1 (stereo not given) inactive

Test call for this compound, please: O=c1c2ccccc2sc2c(N3CCCC3)nc3ccccc3c12 inactive

Test call for this compound, please: Cc1nccc2c3ccc(OCc4cn(Cc5ccc(Br)cc5)nn4)cc3n(CCCc3ccccc3)c12 inactive

Test call for this compound, please: CNC(=O)NN inactive

Test call for this compound, please: COc1ccccc1N1CCN(CC(O)COc2c(Br)c(Br)c(Br)c3c2OC(C)(C)C3)CC1 (stereo not given) active

Test call for this compound, please: Nc1nc(Nc2ccc(OCc3cccc(F)c3)cc2)c2c(n1)[nH]c1ccc(O)cc12 active

Test call for this compound, please: COc1ccc(-c2nn(-c3ccc(NC(=O)c4ccc(Cl)c(C(F)(F)F)c4)cc3)cc2-c2ccncc2)cc1Cl active

Test call for this compound, please: C=C1C(=O)O[C@H]2[C@H]1CC/C(COC(=O)c1ccc(Br)cc1)=C\CC[C@@]1(C)O[C@@H]21 active

Test call for this compound, please: COc1ccc(-c2[nH]c3ccccc3c2/C=C(\C#N)S(=O)(=O)c2ccccc2)cc1 active

Test call for this compound, please: O=[N+]([O-])c1cccc2cc(S(=O)(=O)O)ccc12 inactive

Test call for this compound, please: FC(F)(F)c1cn(CCN2CCOCC2)c2ncnc(Cl)c12 active

Test call for this compound, please: COc1ccc(Cl)cc1NC(=O)c1cc2c(n1C)-c1nc(NC(=O)C(C)C)sc1CC2 inactive

Test call for this compound, please: COc1ccc(OC)c(NCC(=O)n2nc(/C=C\c3ccc(O)c(OC)c3)cc2/C=C\c2ccc(O)c(OC)c2)c1 active

Test call for this compound, please: Cc1cccc(CC(=O)c2ccccc2)n1 inactive

Test call for this compound, please: COc1cc2ncnc(Oc3ccc(NC(=O)Nc4ccc(CN5CCOCC5)c(C(F)(F)F)c4)c4ccccc34)c2cc1OC inactive

Test call for this compound, please: Cc1cc(O[C@@H]2O[C@@H](C)[C@H](O)[C@@H](O)[C@H]2O)c2c3c(c(O[C@@H]4O[C@@H](C)[C@H](O)[C@@H](O)[C@H]4O)cc2c1)C(=O)c1c(O)cccc1C3=O inactive

Test call for this compound, please: Cc1ccc(/C=C2/C(=O)Nc3cc(Cl)c(-c4csc(N)n4)cc32)cc1 inactive

Test call for this compound, please: CC(C)NCC(O)COc1ccc(CC(N)=O)cc1 (stereo not given) inactive

Test call for this compound, please: O=S(=O)(O)c1ccc(F)cc1 inactive

Test call for this compound, please: COc1ccc(-c2nnc(SCC(=O)Nc3ccc(C(=O)/C=C/c4ccccc4)cc3)o2)cc1OC inactive

Test call for this compound, please: O=[N+]([O-])c1ccc(NS(=O)(=O)c2cc(Cl)ccc2Cl)c2ccccc12 inactive

Test call for this compound, please: COc1ccc(-c2coc3c(CO)c(O)ccc3c2=O)cc1 inactive

Test call for this compound, please: COC(=O)c1ccc(NC(N)=NCC(C)(C)COc2ccc(C(F)(F)F)cc2)nc1 active

Test call for this compound, please: Cc1ccc2c(c1)Nc1ccc(C)cc1C2(C)C inactive
